# Test system: Shigella sonnei EW33
Assay readout: MIC (µg/mL)

1. CCn1cc(C(=O)O)c(=O)c2cnc(N3CCN(Cc4ccc(OC)cc4)CC3)nc21 [Compound 2]    3
2. CCn1cc(C(=O)O)c(=O)c2cnc(N3CCN(Cc4ccc(Cl)cc4)CC3)nc21 [Compound 3]    3
3. CCn1cc(C(=O)O)c(=O)c2cnc(N3CCCC3)nc21 [Compound PA]    3
4. CCn1cc(C(=O)O)c(=O)c2cnc(N3CCNCC3)nc21 [Compound PPA]    1
5. CCn1cc(C(=O)O)c(=O)c2cnc(N3CCN(Cc4ccc(N)cc4)CC3)nc21 [Compound AT-1826]    1
6. CCn1cc(C(=O)O)c(=O)c2cnc(N3CCN(Cc4ccccc4)CC3)nc21 [Compound 1]    3
